Values compiled from ChEMBL document CHEMBL4715821.

measuredTarget: Voltage-gated inwardly rectifying potassium channel KCNH2 (Homo sapiens)
Sequence (Q12809 whole entry): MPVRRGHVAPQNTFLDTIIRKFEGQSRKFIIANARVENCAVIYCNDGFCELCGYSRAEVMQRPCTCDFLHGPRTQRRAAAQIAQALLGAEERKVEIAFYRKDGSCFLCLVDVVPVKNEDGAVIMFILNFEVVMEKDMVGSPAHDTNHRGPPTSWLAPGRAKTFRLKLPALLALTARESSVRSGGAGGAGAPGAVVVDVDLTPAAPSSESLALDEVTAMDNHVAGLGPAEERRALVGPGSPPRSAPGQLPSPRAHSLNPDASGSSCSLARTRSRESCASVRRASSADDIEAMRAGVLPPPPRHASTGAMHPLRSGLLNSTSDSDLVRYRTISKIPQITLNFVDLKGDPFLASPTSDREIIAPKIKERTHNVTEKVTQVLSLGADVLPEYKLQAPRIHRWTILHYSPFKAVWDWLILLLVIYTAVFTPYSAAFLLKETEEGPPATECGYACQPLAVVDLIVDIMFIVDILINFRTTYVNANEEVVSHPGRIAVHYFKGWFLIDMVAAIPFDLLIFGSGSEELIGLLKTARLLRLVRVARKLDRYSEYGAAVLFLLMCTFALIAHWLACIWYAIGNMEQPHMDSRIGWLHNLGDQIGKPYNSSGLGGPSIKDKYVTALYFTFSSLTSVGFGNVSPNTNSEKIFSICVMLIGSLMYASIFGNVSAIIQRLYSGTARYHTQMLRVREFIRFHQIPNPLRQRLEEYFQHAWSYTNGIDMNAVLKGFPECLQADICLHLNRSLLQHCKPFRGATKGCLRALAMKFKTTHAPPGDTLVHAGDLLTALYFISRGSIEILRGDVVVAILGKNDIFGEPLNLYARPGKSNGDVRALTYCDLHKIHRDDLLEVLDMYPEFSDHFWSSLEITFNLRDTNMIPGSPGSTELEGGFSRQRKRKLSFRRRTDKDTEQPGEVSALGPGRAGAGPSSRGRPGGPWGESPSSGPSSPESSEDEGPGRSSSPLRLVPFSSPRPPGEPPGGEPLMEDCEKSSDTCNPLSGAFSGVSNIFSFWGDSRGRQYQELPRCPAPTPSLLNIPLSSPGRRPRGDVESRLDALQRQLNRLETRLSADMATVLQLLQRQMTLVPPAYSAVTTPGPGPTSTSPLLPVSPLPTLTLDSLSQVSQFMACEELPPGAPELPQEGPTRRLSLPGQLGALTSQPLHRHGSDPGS
measurementLabel: IC50

Query block: Record request: IC50 value, item CCOc1nc(Nc2ccc(C(=O)N3CCOCC3)cc2OC)nc2[nH]ccc12
Result block: > 63.1 µM

====

measuredTarget: Cytochrome P450 3A4 (Homo sapiens, UniProt P08684)
Sequence (P08684 whole entry): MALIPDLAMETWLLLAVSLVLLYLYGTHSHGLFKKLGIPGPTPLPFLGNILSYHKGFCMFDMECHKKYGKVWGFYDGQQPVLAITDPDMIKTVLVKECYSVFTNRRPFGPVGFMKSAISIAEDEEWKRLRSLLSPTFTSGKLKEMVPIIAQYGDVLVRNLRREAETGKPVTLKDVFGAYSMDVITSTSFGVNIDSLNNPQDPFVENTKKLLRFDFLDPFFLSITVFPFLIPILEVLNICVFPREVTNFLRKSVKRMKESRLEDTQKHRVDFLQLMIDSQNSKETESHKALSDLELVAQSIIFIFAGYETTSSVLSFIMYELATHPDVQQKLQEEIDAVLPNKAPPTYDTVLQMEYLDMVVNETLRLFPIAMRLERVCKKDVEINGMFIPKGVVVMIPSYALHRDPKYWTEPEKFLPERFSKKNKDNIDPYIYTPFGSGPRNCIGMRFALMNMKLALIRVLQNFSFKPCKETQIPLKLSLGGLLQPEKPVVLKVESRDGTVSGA
measurementLabel: pIC50
On this scale, pIC50 is minus log10 of a concentration expressed in M (mol/L).

Query block: What pIC50 value was documented for this molecule, CCOc1nc(Nc2ccc(C(=O)N3CCOCC3)cc2OC)nc2[nH]ccc12 ?
Result block: 3.80

====

assayDetails: Metabolic stability in human liver microsomes assessed as intrinsic clearance
Assay type: ADME, Microsome
measurementLabel: CLH
Field: value (include unit after the number)

Query block: I would be grateful if you could share the reported CLH for CCOc1nc(Nc2ccc(C(=O)NCC(C)(C)O)cc2OC)nc2[nH]ccc12 .
Result block: 0.8 mL/min/g

Query block: I am curious: what CLH value has been reported for CCOc1nc(Nc2ccc(C(=O)N3CCN4CCC[C@H]4C3)cc2OC)nc2[nH]ccc12 ?
Result block: 3.2 mL/min/g

Query block: Which CLH value belongs to CCOc1nc(Nc2ccc(C(=O)N3CC4(COC4)C3)cc2OC)nc2[nH]ccc12 ?
Result block: 1.1 mL/min/g

Query block: Give the measured CLH of CCOc1nc(Nc2ccc(C(=O)N3CCN4CCC[C@@H]4C3)cc2OC)nc2[nH]ccc12 .
Result block: 2.5 mL/min/g

Query block: For the molecule CCOc1nc(Nc2ccc(C(=O)N3CCOC[C@@H]3C)cc2OC)nc2[nH]ccc12 , what CLH is on record?
Result block: 1.4 mL/min/g

====

measuredTarget: Leucine-rich repeat serine/threonine-protein kinase 2 (Homo sapiens)
assayDetails: Inhibition of recombinant His6-Tev-LRRK2 (1326 to 2527 residues) (unknown origin) using LRRKtide as substrate preincubated for 30 mins followed by substrate addition and measured after 2 hrs in presence of ATP by TR-FRET assay
Consider the following compounds and their measured pIC50 readings.
// returns pIC50 (minus log10 of molar concentration), number only

INSERT INTO assay_data (smilesnotation, quantitativeresult) VALUES
  ('CCOc1nc(Nc2ccc(C(=O)N3CCC(F)CC3)cc2OC)nc2[nH]ccc12', 8.20),
  ('CCOc1cc(C(=O)N2CCN(C)CC2)ccc1Nc1nc(OCC)c2cc[nH]c2n1', 8.00),
  ('CCOc1nc(Nc2ccc(C(=O)N3CCOCC3)cc2OC(C)C)nc2[nH]ccc12', 7.90);

Query block: Which pIC50 value belongs to CCOc1nc(Nc2ccc(C(=O)N3CCOCC3)cc2)nc2[nH]ccc12 ?
Result block: 8.10

====

List of pIC50 values.
measuredTarget: Leucine-rich repeat serine/threonine-protein kinase 2 (Homo sapiens, UniProt Q5S007)
Sequence (Q5S007 whole entry, the tested form may be a part): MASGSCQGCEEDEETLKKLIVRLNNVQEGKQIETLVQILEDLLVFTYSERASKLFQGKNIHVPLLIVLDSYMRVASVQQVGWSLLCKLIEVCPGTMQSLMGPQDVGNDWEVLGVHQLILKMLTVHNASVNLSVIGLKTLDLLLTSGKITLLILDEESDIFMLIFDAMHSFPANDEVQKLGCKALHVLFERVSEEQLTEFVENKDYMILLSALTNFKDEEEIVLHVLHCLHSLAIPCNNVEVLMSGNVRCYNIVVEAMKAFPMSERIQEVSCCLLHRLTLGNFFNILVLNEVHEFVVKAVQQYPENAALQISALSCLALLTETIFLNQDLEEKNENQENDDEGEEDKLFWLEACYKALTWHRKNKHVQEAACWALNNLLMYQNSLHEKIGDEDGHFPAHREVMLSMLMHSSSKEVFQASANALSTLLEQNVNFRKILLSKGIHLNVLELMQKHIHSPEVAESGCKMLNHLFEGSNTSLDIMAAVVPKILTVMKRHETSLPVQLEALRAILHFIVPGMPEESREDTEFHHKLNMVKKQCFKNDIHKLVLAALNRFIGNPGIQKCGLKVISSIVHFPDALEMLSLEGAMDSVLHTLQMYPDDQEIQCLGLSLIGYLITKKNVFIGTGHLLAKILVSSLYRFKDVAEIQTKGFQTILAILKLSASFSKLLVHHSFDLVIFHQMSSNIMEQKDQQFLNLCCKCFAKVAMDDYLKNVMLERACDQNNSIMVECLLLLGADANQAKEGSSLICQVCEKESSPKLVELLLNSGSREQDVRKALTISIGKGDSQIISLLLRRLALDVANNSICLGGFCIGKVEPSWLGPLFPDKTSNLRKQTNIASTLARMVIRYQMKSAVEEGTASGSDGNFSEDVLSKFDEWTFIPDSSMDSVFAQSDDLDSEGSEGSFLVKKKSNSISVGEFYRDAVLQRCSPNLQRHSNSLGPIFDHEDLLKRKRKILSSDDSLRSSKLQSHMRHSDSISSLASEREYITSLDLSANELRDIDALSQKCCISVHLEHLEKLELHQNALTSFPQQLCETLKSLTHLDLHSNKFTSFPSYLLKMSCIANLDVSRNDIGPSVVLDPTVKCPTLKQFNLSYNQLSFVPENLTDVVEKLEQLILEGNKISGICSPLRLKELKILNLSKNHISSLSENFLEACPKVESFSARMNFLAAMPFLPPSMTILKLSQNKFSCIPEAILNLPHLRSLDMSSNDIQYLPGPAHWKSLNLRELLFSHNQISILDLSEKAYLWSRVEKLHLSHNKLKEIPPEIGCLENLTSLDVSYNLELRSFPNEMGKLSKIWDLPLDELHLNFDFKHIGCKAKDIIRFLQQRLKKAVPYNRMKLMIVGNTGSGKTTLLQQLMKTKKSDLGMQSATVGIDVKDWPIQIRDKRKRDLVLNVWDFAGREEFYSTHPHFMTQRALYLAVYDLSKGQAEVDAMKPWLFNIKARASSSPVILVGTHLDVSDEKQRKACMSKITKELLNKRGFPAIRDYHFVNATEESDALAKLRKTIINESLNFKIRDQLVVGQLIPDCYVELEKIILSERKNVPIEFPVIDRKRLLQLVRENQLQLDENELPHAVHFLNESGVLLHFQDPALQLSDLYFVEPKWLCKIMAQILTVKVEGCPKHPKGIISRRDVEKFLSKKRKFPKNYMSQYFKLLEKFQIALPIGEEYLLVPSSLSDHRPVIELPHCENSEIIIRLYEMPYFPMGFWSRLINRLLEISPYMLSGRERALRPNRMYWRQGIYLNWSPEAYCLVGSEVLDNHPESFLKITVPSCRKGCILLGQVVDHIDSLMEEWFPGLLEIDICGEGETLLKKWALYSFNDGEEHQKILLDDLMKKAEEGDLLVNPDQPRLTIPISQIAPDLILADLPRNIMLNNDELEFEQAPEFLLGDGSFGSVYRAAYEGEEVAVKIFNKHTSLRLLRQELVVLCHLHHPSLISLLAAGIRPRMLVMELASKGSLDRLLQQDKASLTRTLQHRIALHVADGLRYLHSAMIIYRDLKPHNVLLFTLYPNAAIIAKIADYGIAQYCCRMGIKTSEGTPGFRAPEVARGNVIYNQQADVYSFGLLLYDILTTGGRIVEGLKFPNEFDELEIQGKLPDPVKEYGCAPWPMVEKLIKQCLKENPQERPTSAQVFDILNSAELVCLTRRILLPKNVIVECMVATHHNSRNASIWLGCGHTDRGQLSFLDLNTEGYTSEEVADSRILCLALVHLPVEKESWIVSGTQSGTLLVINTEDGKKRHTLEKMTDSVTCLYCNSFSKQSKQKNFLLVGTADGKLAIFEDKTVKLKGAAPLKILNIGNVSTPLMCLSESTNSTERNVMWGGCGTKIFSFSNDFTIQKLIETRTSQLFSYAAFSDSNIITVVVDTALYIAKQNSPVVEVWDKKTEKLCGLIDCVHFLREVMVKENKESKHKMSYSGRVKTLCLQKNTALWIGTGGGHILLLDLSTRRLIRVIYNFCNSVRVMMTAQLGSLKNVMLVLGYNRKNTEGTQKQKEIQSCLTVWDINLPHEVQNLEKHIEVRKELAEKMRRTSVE
assayDetails: Inhibition of recombinant His6-Tev-LRRK2 (1326 to 2527 residues) (unknown origin) using LRRKtide as substrate preincubated for 30 mins followed by substrate addition and measured after 2 hrs in presence of ATP by TR-FRET assay
pIC50 (log units): -log10 of the concentration in mol/L.

# example entries with known answers
INSERT INTO assay_data (smilesnotation, measurementlabel, quantitativeresult) VALUES
  ('CCOc1nc(Nc2ccc(C(=O)N3CCOC[C@@H]3C)cc2OC)nc2[nH]ccc12', 'pIC50', 8.10),
  ('CCOc1nc(Nc2ccc(C(=O)NCC(C)(C)O)cc2OC)nc2[nH]ccc12', 'pIC50', 7.90),
  ('CCOc1nc(Nc2ccc(C(=O)N3CCN(C)CC3)cc2OC)nc2[nH]ccc12', 'pIC50', 7.80),
  ('CCOc1nc(Nc2ccc(C(=O)N3CCN(C)CC3)cc2)nc2[nH]ccc12', 'pIC50', 7.90),
  ('CCOc1nc(Nc2ccc(C(=O)N3CCN(C)CC3)cc2N(C)C)nc2[nH]ccc12', 'pIC50', 6.70);

Query block: Query (compound): CCOc1nc(Nc2ccc(C(=O)N3CCOC[C@H]3C)cc2OC)nc2[nH]ccc12 ; field requested: pIC50
Result block: 7.80

Query block: Could you share which pIC50 value was measured for CCOc1nc(Nc2ccc(C(=O)N3CCN(C)CC3)cc2Cl)nc2[nH]ccc12 ?
Result block: 7.90

Query block: Query (compound): CCOc1nc(Nc2ccc(C(=O)N3CCN(C)CC3)cc2F)nc2[nH]ccc12 ; field requested: pIC50
Result block: 7.90

Query block: Consider the compound shown here: CCOc1nc(Nc2ccc(C(=O)N3C[C@@H](C)O[C@@H](C)C3)cc2OC)nc2[nH]ccc12 What is its recorded pIC50?
Result block: 7.20

Query block: Record request: pIC50 value, item CCOc1nc(Nc2ccc(C(=O)N3CCC4(CC3)CN(C)C4)cc2OC)nc2[nH]ccc12
Result block: 8.20

Query block: Form field: reported pIC50 of NC(=O)c1ccc(Nc2nc(NCC(F)(F)F)c3cc[nH]c3n2)cc1
Result block: 7.90

Query block: Suppose we examine the compound CCOc1nc(Nc2ccc(C(=O)N3CC4(COC4)C3)cc2OC)nc2[nH]ccc12 ; what pIC50 value has been reported?
Result block: 7.20
